What Bliss excess was measured for each of the following?
- Test system: OE33 (Esophageal Adenocarcinoma)
- Protocol Summary: Bliss excess, mean over the matrix (fraction); higher = more synergy;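 also: after 72 h of two-drug dosing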
// return just the number, without any unit appended

[Q] Please give the documented Bliss excess of CN(CCO)CC[C@H](CSc1ccccc1)Nc1ccc(S(=O)(=O)NC(=O)c2ccc(N3CCC([C@@H](O)c4ccccc4-c4ccc(Cl)cc4)CC3)cc2)cc1S(=O)(=O)C(F)(F)F [AZD4320] + C=CCn1c(=O)c2cnc(Nc3ccc(N4CCN(C)CC4)cc3)nc2n1-c1cccc(C(C)(C)O)n1 [AZD1775] (first compound max 1 µM, partner max 1 µM)
[A] -0.0093

[Q] Please give the documented Bliss excess of Cn1cnc2c(F)c(Nc3ccc(Br)cc3Cl)c(C(=O)NOCCO)cc21 [Selumetinib] + CCN(CCO)CCCOc1ccc2c(Nc3cc(CC(=O)Nc4cccc(F)c4)[nH]n3)ncnc2c1 [AZD2811] (first compound max 10 µM, 7x7, partner max 1 µM)
[A] -0.0246

[Q] Please give the documented Bliss excess of C[C@@H](Oc1cc(-c2cnn(C3CCNCC3)c2)cnc1N)c1c(Cl)ccc(F)c1Cl [Crizotinib] + Cn1cnc2c(F)c(Nc3ccc(Br)cc3Cl)c(C(=O)NOCCO)cc21 [Selumetinib] (first compound max 10 µM, 7x7, partner max 10 µM)
[A] -0.0199

[Q] Please give the documented Bliss excess of Cc1c2c(nn1C)CSCc1cc(n(C)n1)CSc1cc(c3ccccc3c1)OCCCc1c(C(=O)O)n(C)c3c-2c(Cl)ccc13 [AZD5991] + CCN(CCO)CCCOc1ccc2c(Nc3cc(CC(=O)Nc4cccc(F)c4)[nH]n3)ncnc2c1 [AZD2811] (first compound max 1 µM, 7x7, partner max 1 µM)
[A] -0.002

[Q] Please give the documented Bliss excess of N#Cc1cnc(Nc2cc(NC[C@H]3CNCCO3)c(C(F)(F)F)cn2)cn1 [SRA737] + C=CCn1c(=O)c2cnc(Nc3ccc(N4CCN(C)CC4)cc3)nc2n1-c1cccc(C(C)(C)O)n1 [AZD1775] (first compound max 10 µM, partner max 1 µM)
[A] 0.0063

[Q] Please give the documented Bliss excess of C=CCn1c(=O)c2cnc(Nc3ccc(N4CCN(C)CC4)cc3)nc2n1-c1cccc(C(C)(C)O)n1 [AZD1775] + O=C(c1cc(Cc2n[nH]c(=O)c3ccccc23)ccc1F)N1CCN(C(=O)C2CC2)CC1 [Olaparib] (first compound max 1 µM, partner max 10 µM)
[A] 0.0117

[Q] Please give the documented Bliss excess of NC1(C(=O)N[C@@H](CCO)c2ccc(Cl)cc2)CCN(c2ncnc3[nH]ccc23)CC1 [Capivasertib] + C[C@@H]1COCCN1C2=NC(=NC(=C2)C3(CC3)[S@](=N)(=O)C)C4=C5C=CNC5=NC=C4 [AZD6738] (first compound max 10 µM, 7x7, partner max 10 µM)
[A] -0.0225

====

- System: EJM (Plasma Cell Myeloma)
- Protocol Summary: Bliss excess, mean over the matrix (fraction); higher = more synergy
Measurement Type: Bliss excess
// return just the number, without any unit appended

[Q] Please give the documented Bliss excess of Cc1c2c(nn1C)CSCc1cc(n(C)n1)CSc1cc(c3ccccc3c1)OCCCc1c(C(=O)O)n(C)c3c-2c(Cl)ccc13 [AZD5991] + C[C@@H](Nc1cc(F)cc(F)c1)c1cc(C(=O)N(C)C)cc2c(=O)cc(N3CCOCC3)oc12 [AZD8186] (first compound max 1 µM, 7x7, partner max 3 µM)
[A] -0.0129

[Q] Please give the documented Bliss excess of Cc1c2c(nn1C)CSCc1cc(n(C)n1)CSc1cc(c3ccccc3c1)OCCCc1c(C(=O)O)n(C)c3c-2c(Cl)ccc13 [AZD5991] + C=CCn1c(=O)c2cnc(Nc3ccc(N4CCN(C)CC4)cc3)nc2n1-c1cccc(C(C)(C)O)n1 [AZD1775] (first compound max 1 µM, partner max 1 µM)
[A] 0.0357

[Q] Please give the documented Bliss excess of Cc1c2c(nn1C)CSCc1cc(n(C)n1)CSc1cc(c3ccccc3c1)OCCCc1c(C(=O)O)n(C)c3c-2c(Cl)ccc13 [AZD5991] + Cn1cnc2c(F)c(Nc3ccc(Br)cc3Cl)c(C(=O)NOCCO)cc21 [Selumetinib] (first compound max 1 µM, 7x7, partner max 3 µM)
[A] 0.0088

[Q] Please give the documented Bliss excess of COc1cccc(OCCCN)c1-c1cc(Nc2cnc(C#N)cn2)n[nH]1 [Prexasertib] + C[C@@H]1COCCN1C2=NC(=NC(=C2)C3(CC3)[S@](=N)(=O)C)C4=C5C=CNC5=NC=C4 [AZD6738] (first compound max 1 µM, 7x7, partner max 10 µM)
[A] -0.044

[Q] Please give the documented Bliss excess of NC1(C(=O)N[C@@H](CCO)c2ccc(Cl)cc2)CCN(c2ncnc3[nH]ccc23)CC1 [Capivasertib] + CC(C)n1c(=O)n(C)c2cnc3cc(F)c(-c4ccc(OCCCN5CCCCC5)nc4)cc3c21 [AZD1390] (first compound max 10 µM, 7x7, partner max 0.3 µM)
[A] -0.0543

[Q] Please give the documented Bliss excess of CN(CCO)CC[C@H](CSc1ccccc1)Nc1ccc(S(=O)(=O)NC(=O)c2ccc(N3CCC([C@@H](O)c4ccccc4-c4ccc(Cl)cc4)CC3)cc2)cc1S(=O)(=O)C(F)(F)F [AZD4320] + Cc1cc2ncnn2cc1Nc1ncc2c(n1)n(C1CCOCC1)c(=O)n2C [AZD7648] (first compound max 1 µM, 7x7, partner max 10 µM)
[A] 0.0347

[Q] Please give the documented Bliss excess of COc1nnc2ccc(N3CCC(c4ccc(OCCN5CCN(C)C(=O)[C@H]5C)cc4)CC3)nn12 [AZD5153] + CN(CC[C@H](CSC1=CC=CC=C1)NC2=C(C=C(C=C2)S(=O)(=O)NC(=O)C3=CC=C(C=C3)N4CCC(CC4)[C@H](C5=CC=CC=C5C6=CC=C(C=C6)Cl)O)S(=O)(=O)C(F)(F)F)CCO [AZD4320] (first compound max 1 µM, 7x7, partner max 1 µM)
[A] 0.106

[Q] Please give the documented Bliss excess of CN(CCO)CC[C@H](CSc1ccccc1)Nc1ccc(S(=O)(=O)NC(=O)c2ccc(N3CCC([C@@H](O)c4ccccc4-c4ccc(Cl)cc4)CC3)cc2)cc1S(=O)(=O)C(F)(F)F [AZD4320] + C[C@@H](Nc1cc(F)cc(F)c1)c1cc(C(=O)N(C)C)cc2c(=O)cc(N3CCOCC3)oc12 [AZD8186] (first compound max 1 µM, 7x7, partner max 3 µM)
[A] 0.0837

[Q] Please give the documented Bliss excess of COc1nnc2ccc(N3CCC(c4ccc(OCCN5CCN(C)C(=O)[C@H]5C)cc4)CC3)nn12 [AZD5153] + CC1(C)CCC(CN2CCN(c3ccc(C(=O)NS(=O)(=O)c4ccc(NCC5CCOCC5)c([N+](=O)[O-])c4)c(Oc4cnc5[nH]ccc5c4)c3)CC2)=C(c2ccc(Cl)cc2)C1 [Venetoclax] (first compound max 1 µM, 7x7, partner max 1 µM)
[A] -0.0381

[Q] Please give the documented Bliss excess of CC(=O)c1c(C)c2cnc(Nc3ccc(N4CCNCC4)cn3)nc2n(C2CCCC2)c1=O [Palbociclib] + CN(CC[C@H](CSC1=CC=CC=C1)NC2=C(C=C(C=C2)S(=O)(=O)NC(=O)C3=CC=C(C=C3)N4CCC(CC4)[C@H](C5=CC=CC=C5C6=CC=C(C=C6)Cl)O)S(=O)(=O)C(F)(F)F)CCO [AZD4320] (first compound max 10 µM, 7x7, partner max 1 µM)
[A] -0.0016

[Q] Please give the documented Bliss excess of Cc1cc2ncnn2cc1Nc1ncc2c(n1)n(C1CCOCC1)c(=O)n2C [AZD7648] + C=CCn1c(=O)c2cnc(Nc3ccc(N4CCN(C)CC4)cc3)nc2n1-c1cccc(C(C)(C)O)n1 [AZD1775] (first compound max 10 µM, partner max 1 µM)
[A] -0.012

[Q] Please give the documented Bliss excess of COc1nnc2ccc(N3CCC(c4ccc(OCCN5CCN(C)C(=O)[C@H]5C)cc4)CC3)nn12 [AZD5153] + Cc1c2c(nn1C)CSCc1cc(n(C)n1)CSc1cc(c3ccccc3c1)OCCCc1c(C(=O)O)n(C)c3c-2c(Cl)ccc13 [AZD5991] (first compound max 1 µM, 7x7, partner max 1 µM)
[A] 0.0564

[Q] Please give the documented Bliss excess of CC1(C)CCC(CN2CCN(c3ccc(C(=O)NS(=O)(=O)c4ccc(NCC5CCOCC5)c([N+](=O)[O-])c4)c(Oc4cnc5[nH]ccc5c4)c3)CC2)=C(c2ccc(Cl)cc2)C1 [Venetoclax] + C=CCn1c(=O)c2cnc(Nc3ccc(N4CCN(C)CC4)cc3)nc2n1-c1cccc(C(C)(C)O)n1 [AZD1775] (first compound max 1 µM, partner max 1 µM)
[A] -0.0641

[Q] Please give the documented Bliss excess of CC(=O)Nc1cccc(-n2c(=O)n(C3CC3)c(=O)c3c(Nc4ccc(I)cc4F)n(C)c(=O)c(C)c32)c1 [Trametinib] + Cc1nc(-c2cn3c(n2)-c2ccc(-c4cnn(C(C)(C)C(N)=O)c4)cc2OCC3)n(C(C)C)n1 [Taselisib] (first compound max 1 µM, 7x7, partner max 10 µM)
[A] 0.142
